Target or system ACHN (kidney cancer): recorded GI50 listed per item.
property: GI50 (µg/mL)

[[record]]
compound = "C=CCCCCCCCCC(=O)N1CC[N+](C)(CC=C)CC1"
property = "GI50"
unit_abbrev = "µg/mL"
qualifier_symbol = ">"
test_value = 10

[[record]]
compound = "CCCCCCCCCCCCCCCC(=O)N1CC[N+](C)(Cc2ccc(OC)cc2)CC1.[Cl-]"
property = "GI50"
unit_abbrev = "µg/mL"
qualifier_symbol = "="
test_value = 1.31

[[record]]
compound = "C=CC[N+]1(C)CCN(C(=O)CCCCCCCCCCCCCCCCC)CC1"
property = "GI50"
unit_abbrev = "µg/mL"
qualifier_symbol = "="
test_value = 1.79

[[record]]
compound = "C=CC[N+]1(C)CCN(S(=O)(=O)CCCCCCCCCCCC)CC1"
property = "GI50"
unit_abbrev = "µg/mL"
qualifier_symbol = "="
test_value = 0.86

[[record]]
compound = "CCCCCCCCCCCCCCCCCC(=O)N1CC[N+](CC)(Cc2ccc(Br)cc2)CC1"
property = "GI50"
unit_abbrev = "µg/mL"
qualifier_symbol = "="
test_value = 1.94

[[record]]
compound = "CCCCCCCCCCCCS(=O)(=O)N1CC[N+](C)(Cc2ccc(F)cc2)CC1"
property = "GI50"
unit_abbrev = "µg/mL"
qualifier_symbol = "="
test_value = 1.37

[[record]]
compound = "CCCCCCCC(=O)N1CC[N+](C)(CC)CC1.[I-]"
property = "GI50"
unit_abbrev = "µg/mL"
qualifier_symbol = ">"
test_value = 10

[[record]]
compound = "C=CC[N+]1(C)CCN(S(=O)(=O)CCCCCCCC)CC1"
property = "GI50"
unit_abbrev = "µg/mL"
qualifier_symbol = ">"
test_value = 10

[[record]]
compound = "CCCCCCCCCCS(=O)(=O)N1CC[N+](C)(Cc2cccc(C)c2)CC1"
property = "GI50"
unit_abbrev = "µg/mL"
qualifier_symbol = "="
test_value = 4.13

[[record]]
compound = "CCCCCCCCCCCCCCS(=O)(=O)N1CC[N+](C)(Cc2ccccc2)CC1"
property = "GI50"
unit_abbrev = "µg/mL"
qualifier_symbol = "="
test_value = 1.11

[[record]]
compound = "CCCCCCCCCCCCS(=O)(=O)N1CC[N+](CC)(Cc2ccccc2)CC1"
property = "GI50"
unit_abbrev = "µg/mL"
qualifier_symbol = "="
test_value = 1.12

[[record]]
compound = "C=CC[N+]1(C)CCN(C(=O)CCCCCCCCC)CC1"
property = "GI50"
unit_abbrev = "µg/mL"
qualifier_symbol = ">"
test_value = 10

[[record]]
compound = "CCCCCCCCCCS(=O)(=O)N1CC[N+](C)(Cc2ccc(C)cc2)CC1"
property = "GI50"
unit_abbrev = "µg/mL"
qualifier_symbol = ">"
test_value = 10

[[record]]
compound = "C=CC[N+]1(CC)CCN(C(=O)CCCCCCCCCCCCCCC)CC1.[Br-]"
property = "GI50"
unit_abbrev = "µg/mL"
qualifier_symbol = "="
test_value = 0.5

[[record]]
compound = "CCCCCCCCCCS(=O)(=O)N1CC[N+](C)(CC)CC1"
property = "GI50"
unit_abbrev = "µg/mL"
qualifier_symbol = "="
test_value = 4.15

[[record]]
compound = "CCCCCCCCS(=O)(=O)N1CC[N+](C)(Cc2ccccc2)CC1"
property = "GI50"
unit_abbrev = "µg/mL"
qualifier_symbol = ">"
test_value = 10

[[record]]
compound = "CCCCCCCCCCCCCCCCCCCCCCCC(=O)N1CC[N+](C)(Cc2ccccc2)CC1"
property = "GI50"
unit_abbrev = "µg/mL"
qualifier_symbol = ">"
test_value = 10

[[record]]
compound = "CCCCCCCCCCCC(=O)N1CC[N+](CC)(Cc2cccc([N+](=O)[O-])c2)CC1"
property = "GI50"
unit_abbrev = "µg/mL"
qualifier_symbol = "="
test_value = 4.84

[[record]]
compound = "CCCCCCCCCS(=O)(=O)N1CC[N+](CC)(Cc2cccc([N+](=O)[O-])c2)CC1"
property = "GI50"
unit_abbrev = "µg/mL"
qualifier_symbol = ">"
test_value = 10

[[record]]
compound = "CCCCCCCCCCCCCCCCCC(=O)N1CC[N+](CC)(Cc2ccccc2)CC1"
property = "GI50"
unit_abbrev = "µg/mL"
qualifier_symbol = ">"
test_value = 10

[[record]]
compound = "CCCCCCCCCCCCS(=O)(=O)N1CC[N+](CC)(Cc2ccc(F)cc2)CC1"
property = "GI50"
unit_abbrev = "µg/mL"
qualifier_symbol = "="
test_value = 1.21

[[record]]
compound = "C=CCC[N+]1(C)CCN(C(=O)CCCCCCCCCCCCCCC)CC1.[Br-]"
property = "GI50"
unit_abbrev = "µg/mL"
qualifier_symbol = "="
test_value = 1.58

[[record]]
compound = "C=CC[N+]1(CC)CCN(S(=O)(=O)CCCCCCCCC)CC1"
property = "GI50"
unit_abbrev = "µg/mL"
qualifier_symbol = ">"
test_value = 10

[[record]]
compound = "CCCCCCCCCCCCCCCCCCCCCCCC(=O)N1CC[N+](C)(CC)CC1"
property = "GI50"
unit_abbrev = "µg/mL"
qualifier_symbol = ">"
test_value = 10

[[record]]
compound = "C=CC[N+]1(CC)CCN(S(=O)(=O)CCCCCCCC)CC1"
property = "GI50"
unit_abbrev = "µg/mL"
qualifier_symbol = ">"
test_value = 10

[[record]]
compound = "CCCCCCCCCCCCCC(=O)N1CC[N+](CC)(Cc2cccc(C)c2)CC1"
property = "GI50"
unit_abbrev = "µg/mL"
qualifier_symbol = "="
test_value = 2.08

[[record]]
compound = "CCCCCCCCCCCCCC(=O)N1CCC[N+](C)(Cc2ccc(F)cc2)CC1 (stereo not drawn)"
property = "GI50"
unit_abbrev = "µg/mL"
qualifier_symbol = "="
test_value = 1.1

[[record]]
compound = "CCCCCCCCCCS(=O)(=O)N1CC[N+](C)(Cc2ccc(F)cc2)CC1"
property = "GI50"
unit_abbrev = "µg/mL"
qualifier_symbol = "="
test_value = 3.79

[[record]]
compound = "CCCCCCCCCCCCCCCC(=O)N1CC[N+](CC)(Cc2ccccc2)CC1.[Br-]"
property = "GI50"
unit_abbrev = "µg/mL"
qualifier_symbol = "="
test_value = 0.92

[[record]]
compound = "CCCCCCCCCCCCCC(=O)N1CCC[N+](C)(Cc2ccccc2)CC1 (stereo not drawn)"
property = "GI50"
unit_abbrev = "µg/mL"
qualifier_symbol = "="
test_value = 1

[[record]]
compound = "C=CC[N+]1(C)CCCN(C(=O)CCCCCCCCCCCCCCC)CC1 (stereo not drawn)"
property = "GI50"
unit_abbrev = "µg/mL"
qualifier_symbol = "="
test_value = 0.74

[[record]]
compound = "CCCCCCCCCCS(=O)(=O)N1CC[N+](CC)(Cc2cccc([N+](=O)[O-])c2)CC1"
property = "GI50"
unit_abbrev = "µg/mL"
qualifier_symbol = "="
test_value = 4.82

[[record]]
compound = "CCCCCCCCCCCCCCCCCCS(=O)(=O)N1CC[N+](C)(CC)CC1"
property = "GI50"
unit_abbrev = "µg/mL"
qualifier_symbol = "="
test_value = 1.07

[[record]]
compound = "CCCCCCCCCCCCCCCCCCCCCC(=O)N1CC[N+](C)(CC)CC1"
property = "GI50"
unit_abbrev = "µg/mL"
qualifier_symbol = "="
test_value = 1.9

[[record]]
compound = "C=CC[N+]1(C)CCN(C(=O)CCCCCCCCCCCCC)CC1"
property = "GI50"
unit_abbrev = "µg/mL"
qualifier_symbol = ">"
test_value = 10

[[record]]
compound = "C=CC[N+]1(C)CCN(C(=O)CCCCCCCCCCCCCCCCCCCCC)CC1"
property = "GI50"
unit_abbrev = "µg/mL"
qualifier_symbol = "="
test_value = 2.37


###

- System: ACHN (kidney cancer)
property: GI50 (µg/mL)

[[record]]
compound = "CCCCCCCCCCCS(=O)(=O)N1CC[N+](C)(Cc2ccccc2)CC1"
property = "GI50"
qualifier_symbol = "="
test_value = 1.16

[[record]]
compound = "CCCCCCCCCCCCS(=O)(=O)N1CC[N+](CC)(Cc2cccc([N+](=O)[O-])c2)CC1"
property = "GI50"
qualifier_symbol = "="
test_value = 1.05

[[record]]
compound = "CCCCCCCCCCCCCCS(=O)(=O)N1CC[N+](C)(Cc2ccc(F)cc2)CC1"
property = "GI50"
qualifier_symbol = "="
test_value = 1.42

[[record]]
compound = "C=CC[N+]1(C)CCN(C(=O)CCCCCCCCCCCCCCC)CC1.[Br-]"
property = "GI50"
qualifier_symbol = "="
test_value = 1.14

[[record]]
compound = "CCCCCCCCCCCS(=O)(=O)N1CC[N+](CC)(CC)CC1"
property = "GI50"
qualifier_symbol = "="
test_value = 0.81

[[record]]
compound = "CCCCCCCCCCCCCC(=O)N1CCC[N+](C)(Cc2cccc([N+](=O)[O-])c2)CC1 (stereo not shown)"
property = "GI50"
qualifier_symbol = "="
test_value = 0.82

[[record]]
compound = "CCCCCCCCCCS(=O)(=O)N1CC[N+](C)(C)CC1"
property = "GI50"
qualifier_symbol = "="
test_value = 4.45

[[record]]
compound = "CCCCCCCC(=O)N1CC[N+](C)(Cc2ccc(OC)cc2)CC1.[Cl-]"
property = "GI50"
qualifier_symbol = ">"
test_value = 10

[[record]]
compound = "CCCCCCCCCCCCCCCCCCS(=O)(=O)N1CC[N+](CC)(Cc2ccccc2)CC1"
property = "GI50"
qualifier_symbol = "="
test_value = 1.87

[[record]]
compound = "CCCCCCCCCC(=O)N1CC[N+](C)(CC)CC1"
property = "GI50"
qualifier_symbol = ">"
test_value = 10

[[record]]
compound = "C=CC[N+]1(C)CCN(S(=O)(=O)CCCCCCCCCCC)CC1"
property = "GI50"
qualifier_symbol = "="
test_value = 1.69

[[record]]
compound = "CCCCCCCCCCCC(=O)N1CCC[N+](C)(Cc2ccc(OC)cc2)CC1 (stereo not shown)"
property = "GI50"
qualifier_symbol = "="
test_value = 1.48

[[record]]
compound = "CCCCCCCCCCCCCCCCCCCC(=O)N1CC[N+](C)(Cc2ccccc2)CC1"
property = "GI50"
qualifier_symbol = "="
test_value = 1.89

[[record]]
compound = "CCCCCCCCCCCCCCCCCCCC(=O)N1CC[N+](C)(CC)CC1"
property = "GI50"
qualifier_symbol = "="
test_value = 1.23

[[record]]
compound = "C=CCCCCCCCCC(=O)N1CC[N+](C)(Cc2ccccc2)CC1"
property = "GI50"
qualifier_symbol = ">"
test_value = 10

[[record]]
compound = "CCCCCCCC(=O)N1CC[N+](C)(Cc2ccccc2)CC1.[Br-]"
property = "GI50"
qualifier_symbol = ">"
test_value = 10


Source listed as patent US20100144708A1.
